# STUDY SYSTEM: Adenosine receptor A2a (Homo sapiens)
# Sequence (P29274 whole entry): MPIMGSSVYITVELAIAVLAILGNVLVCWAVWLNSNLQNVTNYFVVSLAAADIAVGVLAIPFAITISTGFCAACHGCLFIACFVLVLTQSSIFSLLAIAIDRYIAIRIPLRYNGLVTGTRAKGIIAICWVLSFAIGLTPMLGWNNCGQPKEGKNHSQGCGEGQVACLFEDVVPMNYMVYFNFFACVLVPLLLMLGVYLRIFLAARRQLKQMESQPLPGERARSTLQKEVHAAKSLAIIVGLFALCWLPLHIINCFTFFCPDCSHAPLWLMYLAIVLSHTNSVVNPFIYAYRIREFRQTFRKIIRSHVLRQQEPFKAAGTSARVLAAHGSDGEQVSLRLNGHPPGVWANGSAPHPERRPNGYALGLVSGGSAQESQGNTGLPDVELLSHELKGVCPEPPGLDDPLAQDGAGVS
# ASSAY PROCEDURE: Antagonist activity at human adenosine 2A receptor expressed in HEK293 cells assessed as reduction in cAMP production preincubated for 10 mins followed by 5 nM A2A agonist NECA addition and measured after 30 mins by EU-cAMP tracer based TR-FRET assay
# Assay type: functional, cell-based
OBSERVED PROPERTY: IC50 (nM)
Dear colleague, please return just the value in nM, with no unit written.

Qu. Which IC50 reading was recorded for the compound NC(=O)Cc1cc(N2CCN(CCn3c(=O)sc4c3nc(N)n3nc(-c5ccco5)nc43)CC2)c(F)cc1F ?
Ans. 2
